Test system: LOX IMVI melanoma
Assay: NCI tumour cell line growth inhibition, 48 h
# label = Criterion met if TGI >= 30 µM else Criterion not met

Known results for compounds:
CC1CCN(c2nnc(Cl)cc2C(=O)c2ccccc2)CC1 = Criterion met
CC1(C(O)c2ccccc2)CN(C(C)(C)C)C(=O)/C1=C\Sc1ccccc1 (centres undefined) = Criterion met
CCC(=O)O[C@@H]1C2C(OC(C)=O)C34COC(C)([C@@H]3C3C(C[C@]3(C)OC(C)=O)[C@@H](OC(=O)c3ccccc3)C4=O)[C@H](OC(C)=O)[C@@]2(OC(C)=O)C[C@@H]1C (some centres undefined) = Criterion met
CCCCc1cc2c(cc1O)CCC1C2CC[C@@]2(C)C1CC[C@@H]2O (some centres undefined) = Criterion met
CCC1OC2C(CC=C(C)C)=C3OC(C)(O)C(C)(CC)C(O)C3=C3OC(=O)C=C1C32 (centres undefined) = Criterion met
O=C1c2cc3c(cc2-c2c1c1ccc([N+](=O)[O-])cc1c(=O)n2CCCCl)OCO3 = Criterion met
O=[N+]([O-])c1ccc2[nH]cc(-c3c4ccccc4cc4[nH]c5ccc([N+](=O)[O-])cc5c34)c2c1 = Criterion not met
CCOc1ccc2c(c1)/C(=C\C=C\C1CC(C)C3CC(OCC)CCC3N1CC)CC(C)N2CC (centres undefined) = Criterion not met

Kindly determine if TGI recorded for Cc1cccc(C)c1NC(=O)C(=O)C1C(=O)N(c2ccccc2)N=C1N (centres undefined) is above or exactly 30 µM.
Criterion met
